test system: 695427-040-R-J1-PDC complex spheroid viability; assay: Anticancer human tumor 695427-040-R-J1-PDC patient-derived colon adenocarcinoma cell line growth inhibition [POLQ]; details: second compound 0.0316 µM; first compound 3.16 µM; hits give low values
attribute-measured: viability, T/C

Check out these entries, answers already filled in.
COc1cc(C2c3cc4c(cc3C(OC3OC5COC(C)OC5C(O)C3O)C3COC(=O)C23)OCO4)cc(OC)c1O (stereo not given) + Nc1ccc(C#CCN(C(=O)Cc2ncc(C(F)(F)F)cc2C(F)(F)F)c2ccc(F)cc2)nn1; 95.2%
O=C(c1cc(Cc2n[nH]c(=O)c3ccccc23)ccc1F)N1CCN(C(=O)C2CC2)CC1 + Cc1cccc(N(C)C(=O)C2C(O)CCN2c2nc(C)cc(C(F)(F)F)c2C#N)c1; 104%

Item under review: COc1ccc([C@@H](O)c2cc(-c3ncnc4cc(N5CCOCC5)ccc34)c(F)cc2Cl)nn1 + Nc1ccc(C#CCN(C(=O)Cc2ncc(C(F)(F)F)cc2C(F)(F)F)c2ccc(F)cc2)nn1 . Reported viability, T/C?
84.3%

Now this one: COc1cccc2c1C(=O)c1c(O)c3c(c(O)c1C2=O)CC(O)(C(=O)CO)CC3OC1CC(N)C(O)C(C)O1 (stereo not given) + COC1C(OC(N)=O)C(O)C(Oc2ccc3c(O)c(NC(=O)c4ccc(O)c(CC=C(C)C)c4)c(=O)oc3c2C)OC1(C)C
68.2%

Now this one: C#Cc1c(F)ccc2cc(O)cc(-c3ncc4c(N5CC6CCC(C5)N6)nc(OCC56CCCN5CC(F)C6)nc4c3F)c12 (stereo not given) + Cc1cccc(N(C)C(=O)C2C(O)CCN2c2nc(C)cc(C(F)(F)F)c2C#N)c1
88.3%

Now this one: CCc1cc2c(N3CCc4c(cc(Cn5ccnc5)cc4-c4cn(C)nc4C(F)(F)F)C3=O)ccnc2c(OC)n1 + COC1C(OC(N)=O)C(O)C(Oc2ccc3c(O)c(NC(=O)c4ccc(O)c(CC=C(C)C)c4)c(=O)oc3c2C)OC1(C)C
114%

* * *

test system: 695427-040-R-J1-PDC complex spheroid viability; test: Anticancer human tumor 695427-040-R-J1-PDC cell line growth inhibition [POLQ]; settings: second compound 10 µM; first compound 10 µM; hits give low values;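 note: spheroids exposed to compounds for seven days; 100% = DMSO vehicle control viability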
Strictly below 50% in viability, T/C: class 1. Otherwise: class 0.

CC1COCCN1c1cc(-c2ccnn2C)c2ccnc(-c3ccn[nH]3)c2n1 (stereo unspecified) + COC1C(OC(N)=O)C(O)C(Oc2ccc3c(O)c(NC(=O)c4ccc(O)c(CC=C(C)C)c4)c(=O)oc3c2C)OC1(C)C; class 1
COc1cccc2c1C(=O)c1c(O)c3c(c(O)c1C2=O)CC(O)(C(=O)CO)CC3OC1CC(N)C(O)C(C)O1 (stereo unspecified) + Cc1cccc(N(C)C(=O)C2C(O)CCN2c2nc(C)cc(C(F)(F)F)c2C#N)c1; class 1
COc1cccc2c1C(=O)c1c(O)c3c(c(O)c1C2=O)CC(O)(C(=O)CO)CC3OC1CC(N)C(O)C(C)O1 (stereo unspecified) + Nc1ccc(C#CCN(C(=O)Cc2ncc(C(F)(F)F)cc2C(F)(F)F)c2ccc(F)cc2)nn1; class 1
C=CC(=O)N1CCN(c2nc(=O)n(-c3c(C)ccnc3C(C)C)c3nc(-c4c(O)cccc4F)c(F)cc23)C(C)C1 (stereo unspecified) + Cc1cccc(N(C)C(=O)C2C(O)CCN2c2nc(C)cc(C(F)(F)F)c2C#N)c1; class 0

Given the entry Nc1ccn(C2OC(CO)C(O)C2(F)F)c(=O)n1 (stereo unspecified) + COC1C(OC(N)=O)C(O)C(Oc2ccc3c(O)c(NC(=O)c4ccc(O)c(CC=C(C)C)c4)c(=O)oc3c2C)OC1(C)C , would its reported viability, T/C be below 50%?
class 0

Now this one: CCc1cc2c(N3CCc4c(cc(Cn5ccnc5)cc4-c4cn(C)nc4C(F)(F)F)C3=O)ccnc2c(OC)n1 + Cc1cccc(N(C)C(=O)C2C(O)CCN2c2nc(C)cc(C(F)(F)F)c2C#N)c1
class 0

Now this one: C#Cc1c(F)ccc2cc(O)cc(-c3ncc4c(N5CC6CCC(C5)N6)nc(OCC56CCCN5CC(F)C6)nc4c3F)c12 (stereo unspecified) + Cc1cccc(N(C)C(=O)C2C(O)CCN2c2nc(C)cc(C(F)(F)F)c2C#N)c1
class 0
